Test system: HCC-2998 colon
protocol.details: NCI-60 one-dose screen, 48 h (100 = growth as untreated, 0 = no growth, -100 = all killed)
run.conditions: 10 µM unless noted
The panel holds about 83,000 compounds, 20% with a hit somewhere; the sample as a whole holds those more often.
Listing of recorded growth by entry.
Only the number, expressed in %, is required.

Input CCN1C(=O)N(CC)C2SC(N/N=C/c3cccs3)=NC21 (stereo not drawn) . Output growth: 15.4

Documented growth of COc1ccc(-c2nn(-c3ccccc3)cc2/C=C/C(=O)c2ccc(NC(=O)CCCCCCC(=O)NO)cc2)cc1 : 108

Consider O=C1NC(=O)c2c1c1c3ccccc3ccc1c1[nH]c3ccccc3c21 . Its measured growth is 46.1
